# Species on record: Rattus norvegicus
# Run description: DrugMatrix - Regimen: Daily Repeat
# Assay type: toxicity, organism-based, Sprague-Dawley
# Parameters: regimen Daily Repeat, gender Male, age 6-8 weeks
# Condition parameters: in vivo, po, 0 mg/kg, 120 h, tissue Blood, route oral GAVAGE, dose level Control, time 5 day, vehicle .5 % CMC
Value type: ABSOLUTE LYMPHOCYTE (CELLS/uL)
Report the value in CELLS/uL with no unit label.

1) C#C[C@]1(O)CC[C@H]2[C@@H]3CCc4cc(OC)ccc4[C@H]3CC[C@@]21C
14943.67
2) CC(C)[C@H]1CC[C@H](C(=O)N[C@H](Cc2ccccc2)C(=O)O)CC1 [NATEGLINIDE]
11419.17
3) C[C@](O)(CS(=O)(=O)c1ccc(F)cc1)C(=O)Nc1ccc(C#N)c(C(F)(F)F)c1 [(R)-BICALUTAMIDE]
13632.83

Bench note: what ABSOLUTE LYMPHOCYTE did `CNC(=C[N+](=O)[O-])NCCSCc1ccc(CN(C)C)o1` show? 14943.67

* * *

# Species: Rattus norvegicus
# Run description: DrugMatrix - Regimen: Daily Repeat
# Type: toxicity, organism-based, Sprague-Dawley
# Parameters: regimen Daily Repeat, gender Male, age 6-8 weeks
# Condition parameters: in vivo, po, 0 mg/kg, 120 h, tissue Blood, route oral GAVAGE, dose level Control, time 5 day, […]
Value type: MEAN CORPUSCULAR VOLUME
Show the value, then the unit it is measured in.

// worked examples, MEAN CORPUSCULAR VOLUME included
1) CC(=O)Nc1ccc(O)cc1
62.87 fL
2) Cc1cccc(Nc2ccncc2S(=O)(=O)NC(=O)NC(C)C)c1 [TORSEMIDE]
64.93 fL
3) CC(C)(Oc1ccc(C2CCCc3ccccc32)cc1)C(=O)O (stereo not drawn)
60.85 fL
4) CC(=O)Nc1cccc(O)c1
61.97 fL
5) C[C@H]1O[C@@H](O[C@H]2[C@@H](O)C[C@H](O[C@H]3[C@@H](O)C[C@H](O[C@H]4CC[C@@]5(C)[C@H](CC[C@@H]6[C@@H]5CC[C@]5(C)[C@@H](C7=CC(=O)OC7)CC[C@]65O)C4)O[C@@H]3C)O[C@@H]2C)C[C@H](O)[C@@H]1O
61.03 fL

Kindly review the next molecule as well.
Fill in the blank: the reported MEAN CORPUSCULAR VOLUME of `C[C@]12CC[C@@H]3c4ccc(O)cc4CC[C@H]3[C@@H]1CC[C@@H]2O` is ____. 64.93 fL

* * *

# Species on record: Rattus norvegicus
# Run description: DrugMatrix - Regimen: Daily Repeat
# Assay type: toxicity, organism-based, Sprague-Dawley
# Set-up: regimen Daily Repeat, gender Male, age 6-8 weeks
# Condition parameters: in vivo, po, 10 mg/kg, 72 h, tissue Blood, route oral GAVAGE, dose level Low, time 3 day, […]
In this section, each of the molecules is paired with its reported ABSOLUTE LYMPHOCYTE.
# output: bare number, implied unit CELLS/uL

1. CCOC(=O)C1=C(C)NC(C)=C(C(=O)OC)C1c1cccc([N+](=O)[O-])c1 (centres undefined)
9214.67
2. COc1ccc2cc([C@H](C)C(=O)O)ccc2c1
16953.33
3. COCCOC(=O)C1=C(C)NC(C)=C(C(=O)OC(C)C)C1c1cccc([N+](=O)[O-])c1 (centres undefined)
10257

The record that follows has no ABSOLUTE LYMPHOCYTE shown yet.
For the molecule CC(C)CC(N(C)C)C1(c2ccc(Cl)cc2)CCC1 (centres undefined) , what ABSOLUTE LYMPHOCYTE is on record? 16618.67
